Hello, the source for this data is PubChem BioAssay (NCI), in case you need it.

Recorded TGI values for a group of compounds are listed next.
- Tested on: HOP-92 NSCLC
- ASSAY: NCI tumour cell line growth inhibition, 48 h

{"columns": ["STRUCTURE_STRING", "TGI"],
 "data": [
  ["CCOC(=O)c1ccc(N=c2oc3ccc(OC)cc3cc2-c2nc3ccccc3[nH]2)cc1", "> 100 µM"],
  ["CCCN1C(=O)CNC(=O)c2[nH]cnc21", "> 100 µM"],
  ["Clc1ccc2c(NCCNc3nc(N4CCCC4)nc4ccccc34)ccnc2c1", "2.66 µM"],
  ["Cc1ccc(/C=N/NS(=O)(=O)c2ccc(/C=C3\\NC(=O)NC3=O)cc2)cc1", "> 100 µM"],
  ["Cc1ccccc1NC(=O)c1ccc([N+](=O)[O-])cc1", "> 100 µM"],
  ["COCN1C(=O)[C@@H]2CCCN2C(=O)c2ccc([N+](=O)[O-])cc21", "> 100 µM"]
]}

====

- Test system: SR leukemia
- ASSAY: NCI tumour cell line growth inhibition, 48 h
Where a SMILES comes first, the peptide text is derived from it. [ ]: non-standard residue; d: D form. The star is where a group is joined. Bn2Val = CC(C)[C@@H](C(=O)*)N(Cc1ccccc1)Cc1ccccc1; NH(3,4-diMeO-benzyl) = COc1ccc(CN*)cc1OC; NMeV = CN[C@H](C(=O)O)C(C)C
Param threshold (4 µM) applies to TGI; output YES when value >= threshold, NO when value < threshold.

{"columns": ["COMPOUND", "SYSTEM_TESTED", "CLASSIFICATION"],
 "data": [
  ["COc1ccc(C2c3c(-c4ccccc4)nn(-c4ccccc4)c3Oc3ncn4nc(CC#N)nc4c32)cc1OC (centres undefined)", "SR leukemia", "YES"],
  ["O=C(c1cccs1)N(Cc1cccnc1)C(=S)N(Cc1cccnc1)C(=O)c1cccs1", "SR leukemia", "YES"],
  ["COc1ccc(C(SCC(N)C(=O)O)(c2ccc(OC)cc2)c2ccc(OC)cc2)cc1 (centres undefined)", "SR leukemia", "YES"],
  ["COC(=O)[C@@H]1OC(C)(c2ccccc2)O[C@H]1C(=O)OC", "SR leukemia", "YES"],
  ["CCOCCOC[C@H]1CCCN(c2ccnc3sc(C(N)=O)c(N)c23)C1", "SR leukemia", "YES"],
  ["CC1=C2CN(C(=O)OCC(C)C)CCC2C2=C(C(=O)c3ccccc3C2=O)C1C (centres undefined)", "SR leukemia", "YES"],
  ["Cn1c(=O)cc(N2CCCC2)[nH]c1=O", "SR leukemia", "YES"],
  ["C[N+](C)(CCO)CCN1c2ccccc2Sc2ccccc21", "SR leukemia", "YES"],
  ["COc1cc2c(cc1OCCCN1CCN(c3ncnc4ccccc34)CC1)N=CC1CCCN1C2=O (centres undefined)", "SR leukemia", "NO"],
  ["NC(CC(=O)O)(Cc1ccccc1)C(=O)O (centres undefined)", "SR leukemia", "YES"],
  ["c1ccc2c3c(ccc2c1)-c1c(ccc2c(NCCCCN4CCCCC4)cccc12)C3", "SR leukemia", "YES"],
  ["O=C1NC2C(CCO)CC=C[C@H]2c2cc3c(cc21)OCO3 (some centres undefined)", "SR leukemia", "YES"],
  ["CNC(=O)Nc1ccccc1", "SR leukemia", "YES"],
  ["O=[N+]([O-])c1cc2c(c([N+](=O)[O-])c1)Nc1ccccc1O2", "SR leukemia", "YES"],
  ["CCOC(=O)c1cc(C#N)[nH]c1-c1ccsc1", "SR leukemia", "YES"],
  ["CC[CH2][Sn]([CH2]CC)([O]C(=O)Cc1ccc(F)cc1)[O][Sn]([CH2]CC)([CH2]CC)[O]C(=O)Cc1ccc(F)cc1", "SR leukemia", "YES"],
  ["CCCCCCCCCCCCCCCCCC[N+](C)(C)Cc1ccc(C[N+](C)(C)CCCCCCCCCCCCCCCCCC)cc1", "SR leukemia", "YES"],
  ["COC1CC(OC)C(O)C(CO)O1 (centres undefined)", "SR leukemia", "YES"],
  ["CC[C@H]1C=CCC[C@@]2(C[C@@H]3CC[C@H]4[C@H](C(=O)OCCCCCCCCCCCCCCCC(=O)N(CCCN)C[C@@H](O)CCN)[C@]5(CCC[C@@H](C)O5)NC(=[N+]34)N2)O1", "SR leukemia", "NO"],
  ["C=CCSSc1ncnc2c1ncn2C1OC(CO)C(O)C1O (centres undefined)", "SR leukemia", "NO"],
  ["COC(=O)/C=C1/OC(c2ccc(C)cc2)=C(Cl)C1=O", "SR leukemia", "YES"],
  ["CCOC(=O)c1cc(Br)c(-c2onc(C)c2Br)n1C", "SR leukemia", "YES"],
  ["COc1ccc(CNC(=O)[C@@H]2CCCN2C(=O)[C@@H]2CCCN2C(=O)[C@H](C(C)C)N(C)C(=O)[C@@H](NC(=O)[C@H](C(C)C)N(Cc2ccccc2)Cc2ccccc2)C(C)C)cc1OC (Bn2Val-V[NMeV]PP-{NH(3,4-diMeO-benzyl)})", "SR leukemia", "YES"],
  ["COc1cc(Nc2nc3cc(C(F)(F)F)ccc3nc2C)cc(OC)c1OC", "SR leukemia", "YES"],
  ["C=C(CN(C)C)C(=O)c1ccc(Oc2ccccc2)cc1", "SR leukemia", "YES"],
  ["O=C1C[C@H](CCC(=O)OCc2ccccc2)NC(=O)C[C@H](CCC(=O)OCc2ccccc2)NC(=O)C[C@H](CCC(=O)OCc2ccccc2)N1", "SR leukemia", "YES"],
  ["O=C(O)CCSC(=S)Nc1ccc([N+](=O)[O-])cc1", "SR leukemia", "YES"],
  ["O=C(O)c1ccccc1Nc1ccc2nnc(-c3ccncc3)n2n1", "SR leukemia", "YES"],
  ["CC1c2cc(c3c(c2O)CN([C@@H](C)C2CCCCC2)CO3)C(C)c2cc(c3c(c2O)CN([C@@H](C)C2CCCCC2)CO3)C(C)c2cc(c3c(c2O)CN([C@@H](C)C2CCCCC2)CO3)C(C)c2cc1c1c(c2O)CN([C@@H](C)C2CCCCC2)CO1 (some centres undefined)", "SR leukemia", "NO"],
  ["CC(=O)C1=C(O)CCC1=O", "SR leukemia", "YES"],
  ["c1cc(NC2=NCCO2)c2c(c1)OCO2", "SR leukemia", "YES"],
  ["COc1cc(C)c(NC(=O)CN(C)C)cc1Nc1nc(Nc2cccc(F)c2C(N)=O)c2cc[nH]c2n1", "SR leukemia", "NO"],
  ["CCN(CC)CC[n+]1cc2cc(OC)c(OC)cc2c2ccc3cc4c(cc3c21)OCO4", "SR leukemia", "NO"],
  ["CN1CCc2cc(N)cc3c2C1Cc1ccc2c(c1-3)OCO2 (centres undefined)", "SR leukemia", "YES"],
  ["COc1ccc(C(c2ccc3c(c2)OCO3)N2C(=O)CCC2C(=O)O)cc1 (centres undefined)", "SR leukemia", "YES"],
  ["Cn1c(=O)n2n(c1=O)[C@@H](c1ccccc1)[C@H]2c1ccccc1", "SR leukemia", "YES"],
  ["CCN(CC)CCCCC1CCN(CC(=O)N2c3cc(Cl)ccc3NC(=O)CC2C)CC1 (centres undefined)", "SR leukemia", "YES"],
  ["CC#CC(=O)N1CC[C@@H](n2c(=O)n(-c3ccc(Oc4ccccc4)cc3)c3c(N)ncnc32)C1", "SR leukemia", "YES"],
  ["CC(C)N1[C@@H]2CCCC[C@H]2N(C(C)C)P1(=O)C(=O)/C=C/c1ccccc1", "SR leukemia", "YES"]
]}
